- assayed_system: CDK9/cyclin T1 (Homo sapiens, UniProt P50750)
- Sequence (O60563 whole entry): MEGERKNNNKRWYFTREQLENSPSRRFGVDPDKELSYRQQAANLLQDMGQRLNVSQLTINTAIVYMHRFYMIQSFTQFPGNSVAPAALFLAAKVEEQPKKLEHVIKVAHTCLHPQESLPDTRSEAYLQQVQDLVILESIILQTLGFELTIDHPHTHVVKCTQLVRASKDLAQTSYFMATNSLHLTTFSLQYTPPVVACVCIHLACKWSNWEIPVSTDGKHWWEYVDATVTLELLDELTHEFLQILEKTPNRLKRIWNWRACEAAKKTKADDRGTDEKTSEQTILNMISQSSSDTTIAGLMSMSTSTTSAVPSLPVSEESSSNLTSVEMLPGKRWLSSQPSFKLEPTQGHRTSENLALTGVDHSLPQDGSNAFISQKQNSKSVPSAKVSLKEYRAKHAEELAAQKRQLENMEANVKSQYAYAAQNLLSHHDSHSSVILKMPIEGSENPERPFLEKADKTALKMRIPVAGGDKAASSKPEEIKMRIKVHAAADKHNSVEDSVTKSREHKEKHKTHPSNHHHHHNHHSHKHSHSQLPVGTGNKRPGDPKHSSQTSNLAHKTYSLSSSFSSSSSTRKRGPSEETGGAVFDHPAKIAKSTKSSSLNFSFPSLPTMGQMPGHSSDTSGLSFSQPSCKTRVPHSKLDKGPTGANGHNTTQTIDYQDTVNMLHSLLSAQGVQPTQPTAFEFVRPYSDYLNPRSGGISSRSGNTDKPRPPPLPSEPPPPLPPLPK
- Sequence (P50750 whole entry): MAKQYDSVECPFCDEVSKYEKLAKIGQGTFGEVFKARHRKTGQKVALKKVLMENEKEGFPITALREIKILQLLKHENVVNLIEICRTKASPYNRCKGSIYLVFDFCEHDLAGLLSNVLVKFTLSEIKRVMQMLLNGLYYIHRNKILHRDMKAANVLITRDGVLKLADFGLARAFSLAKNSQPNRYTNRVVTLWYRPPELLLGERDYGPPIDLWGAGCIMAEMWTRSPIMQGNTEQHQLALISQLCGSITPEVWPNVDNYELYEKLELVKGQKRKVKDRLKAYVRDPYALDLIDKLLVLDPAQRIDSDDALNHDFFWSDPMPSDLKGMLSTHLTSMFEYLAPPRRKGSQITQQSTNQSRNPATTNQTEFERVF
- test_method_notes: Inhibition of CDK9/cyclin T1 (unknown origin) using as PDKtide substrate incubated for 1 hr in presence of ATP by ADP-glo luminescent assay
endpoint_label: IC50 (µM)

Below, 2 molecules whose answers are already recorded.
                      smiles_representation  experimental_value
0  CN(C)CCNC(=O)c1ccc(Nc2nccc(-c3ccc(F)cc3OCc3ccccc3)n2)cc1              0.0104
1  CC(C)(C)OC(=O)N1CCN(C(=O)c2ccc(Nc3nccc(-c4ccc(F)cc4OCc4ccccc4)n3)cc2)CC1              0.0855

(A) O=C(O)c1ccc(Nc2nccc(-c3ccc(F)cc3OCc3ccccc3)n2)cc1
(B) CC(C)N(CCNC(=O)c1ccc(Nc2nccc(-c3ccc(F)cc3OCc3ccccc3)n2)cc1)C(C)C
(C) CCN(CC)CCNC(=O)c1ccc(Nc2nccc(-c3ccc(F)cc3OCc3ccccc3)n2)cc1
Task for the reader: rank each entry by its IC50, from the minimum upward. Return the labels ranked in the requested order, please.
C, B, A
